Test system: Enterococcus faecium ATCC700221
Assay: MIC panel of challenge pathogens (CLSI)
Format: cell-based
Details: Enterococcus faecium ATCC700221; read-out: MIC80 (80%)
Observable: MIC80 (µg/mL)
// return numeric value only (unit: µg/mL, not printed)

## Task # input molecule: `CCCCc1cccc(-c2cc(-c3nnn[nH]3)sc2Cc2ccc(Cl)cc2)c1` ; wanted: its MIC80
## Result 1

## Task Another molecule to look at: `CC(C)c1cc(Cl)ccc1-c1cc(C(=O)O)sc1-c1ccc(Cl)cc1C(C)C`
## Result 0.25

## Task Same read-out for `Fc1ccc(-c2cc(-c3nnn[nH]3)sc2-c2ccc(F)c3ccccc23)c2ccccc12` ?
## Result 0.5

## Task Same question, `Cc1ccc(Cl)cc1-c1cc(-c2nnn[nH]2)sc1-c1cc(Cl)ccc1C` this time
## Result 1

## Task Subsequent entry: `Clc1ccc(Cc2sc(-c3nnn[nH]3)cc2-c2cccc(CC3CCCC3)c2)cc1`
## Result 0.5

## Task Same for `Cc1cc(Cl)ccc1-c1cc(-c2nnn[nH]2)sc1-c1ccc(Cl)cc1C`
## Result 0.25

## Task Next molecule: `Clc1ccc(-c2cc(-c3nnn[nH]3)sc2-c2ccc(Cl)cc2)cc1`
## Result 1

---
## Task Suppose we examine the molecule `Cc1cc(Cl)ccc1-c1cc(-c2nnn[nH]2)sc1-c1ccc(C)c2ccccc12` ; what MIC80 value has been reported?
## Result 0.25

---

Tested on: E. coli D22
Assay: MIC, NCCLS M7-A6 broth microdilution, E. coli D22
Format: cell-based
Conditions: 16 to 20 h, 35 degrees Celsius
Observable: MIC E coli D22

## Task Would you kindly share the measured MIC E coli D22 for `Cc1ccc(-c2cc(-c3nn[nH]n3)cc(-c3ccc(C)cc3-c3cccc(Cl)c3)c2)c(-c2cccc(Cl)c2)c1` ?
## Result >125 µM

## Task Now the same for `Cc1ccc(-c2cc(-c3nn[nH]n3)cc(-c3ccccc3-c3ccccc3)c2)c2ccccc12`
## Result >125 µM

## Task Could you do the same for `Cc1cc(Cl)ccc1-c1cc(-c2nn[nH]n2)cc(-c2ccc(Cl)cc2C)c1` , please?
## Result 60 µM

---
## Task What does the record list as MIC E coli D22 for `Cc1ccc(-c2cc(-c3nn[nH]n3)cc(-c3cc(Cl)ccc3N(C)C)c2)c2ccccc12` ?
## Result >125 µM

## Task What would you report for `Clc1ccc(-c2cc(-c3nn[nH]n3)cc(-c3ccccc3-c3ccccc3)c2)cc1` ?
## Result >125 µM

## Task `Clc1cccc(-c2ccccc2-c2cc(-c3nn[nH]n3)cc(-c3ccccc3-c3cccc(Cl)c3)c2)c1` ?
## Result >125 µM

## Task How about this compound: `Brc1ccccc1-c1sc(-c2nnn[nH]2)cc1-c1ccccc1C1CCCC1`
## Result >125 µM

## Task Now this one: `c1ccc(C2CC2)c(-c2cc(-c3nnn[nH]3)sc2-c2ccccc2C2CC2)c1`
## Result 125 µM

---

Test system: Staphylococcus aureus EUP MRSA002
Test: MIC panel of challenge pathogens (CLSI), EUP MRSA002
Assay type: cell-based
Conditions: EUPMRSA002; Staphylococcus aureus EUP MRSA002; read-out: MIC80 (80%)
Observable: MIC80 (µg/mL)
Number only, in µg/mL; omit the unit.

Answered cases to consult:
## Task Item Clc1ccc(-c2cc(-c3nnn[nH]3)sc2-c2ccc(Cl)cc2)cc1 [DNM0487] has what recorded MIC80?
## Result 1

## Task Same question for Fc1ccc(-c2cc(-c3nnn[nH]3)sc2-c2ccc(F)c3ccccc23)c2ccccc12 [DNM0537] please.
## Result 1

## Task # repeat for Clc1ccc(Cc2sc(-c3nnn[nH]3)cc2-c2cccc(CC3CCCC3)c2)cc1 [DNM0610]
## Result 0.5

## Task Could you do the same for Cc1ccc(Cl)cc1-c1cc(-c2nnn[nH]2)sc1-c1cc(Cl)ccc1C [DNM0508] , please?
## Result 1

## Task Do the same for Cc1cc(Cl)ccc1-c1cc(-c2nnn[nH]2)sc1-c1ccc(Cl)cc1C [DNM0488] please
## Result 0.5

Okay, next one:
## Task Query: MIC80; subject: Cc1cc(Cl)ccc1-c1cc(-c2nnn[nH]2)sc1-c1ccc(C)c2ccccc12 [DNM0576]
## Result 0.5

---

Tested on: Staphylococcus aureus EUP SAU040
Experiment: MIC panel of challenge pathogens (CLSI)
Assay type: cell-based
Conditions: EUPSAU040; Staphylococcus aureus EUP SAU040; read-out: 100% inhibition
Observable: MIC (µg/mL)
Please state the figure in µg/mL; there is no need to write the unit.

Answered examples (3):
## Task Please report the recorded MIC for `Clc1ccc(-c2cc(-c3nnn[nH]3)sc2-c2ccc(Cl)cc2)cc1` .
## Result 2

## Task Also `Fc1ccc(-c2cc(-c3nnn[nH]3)sc2-c2ccc(F)c3ccccc23)c2ccccc12` , if possible.
## Result 1

## Task Do the same for `Cc1cc(Cl)ccc1-c1cc(-c2nnn[nH]2)sc1-c1ccc(Cl)cc1C` please
## Result 0.5

Continuing:
## Task What value of MIC has been reported for the following compound? `CC(C)c1cc(Cl)ccc1-c1cc(-c2nnn[nH]2)sc1-c1ccc(Cl)cc1C(C)C`
## Result 0.5

## Task // same read-out, input: `Cc1ccc(Cl)cc1-c1cc(-c2nnn[nH]2)sc1-c1cc(Cl)ccc1C`
## Result 1

## Task Please give the result for `Clc1ccc(Cc2sc(-c3nnn[nH]3)cc2-c2cccc(CC3CCCC3)c2)cc1` too.
## Result 0.5

## Task Also `CC(C)c1cc(Cl)ccc1-c1cc(C(=O)O)sc1-c1ccc(Cl)cc1C(C)C` , if possible.
## Result 0.5

---

The compounds listed here are annotated with their remaining activity at 500 µM.
Target: AcpS enzyme (Escherichia coli, UniProt P24224)
Sequence (P24224 whole entry): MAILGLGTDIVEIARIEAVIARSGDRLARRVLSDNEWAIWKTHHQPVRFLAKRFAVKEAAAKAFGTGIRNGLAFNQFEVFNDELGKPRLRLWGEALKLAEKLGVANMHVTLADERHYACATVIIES
Assay: Measurement of AcpS inhibition ([3H]acetyl-CoA incorporation into apo-ACP)
Assay type: biochemical
Settings: test compound 500 uM; % activity vs blank-subtracted counts
Could you give me the number in %? Just the number is fine.

Worked set:
## Task Look up remaining activity at 500 µM for this compound: `CCc1ccccc1-c1cc(-c2nnn[nH]2)sc1-c1ccccc1CC`
## Result 0.3

## Task Param item: `Cc1ccc(-c2cc(-c3nnn[nH]3)sc2-c2ccc(C)c3ccccc23)c2ccccc12`
## Result 0.16

## Task Ok, now `FC(F)(F)Oc1ccccc1-c1cc(-c2nnn[nH]2)sc1-c1ccccc1OC(F)(F)F`
## Result 0.39

## Task // repeat for `c1ccc(-c2cc(-c3nnn[nH]3)sc2-c2ccccc2-c2ccsc2)c(-c2ccsc2)c1` and report
## Result 0.5

# evaluate next
## Task Given the entry `Clc1ccc(Cc2sc(-c3nnn[nH]3)cc2-c2ccccc2-c2ccccc2)cc1` , report its measured remaining activity at 500 µM.
## Result 0

---

Molecular target: AcpS enzyme (Escherichia coli)
Assay: Measurement of AcpS inhibition ([3H]acetyl-CoA incorporation into apo-ACP)
Type: biochemical
Conditions: test compound 500 uM; % activity vs blank-subtracted counts
Procedure: [^3H]Acetyl-CoA was mixed as 1 volume of Perkin Elmer NET290 radiolabeled stock (e.g. 0.1 mCi/ml, 3.7 Ci/mmol in Na-acetate, pH 4.5-5.0=27 μM) with 1.2 volumes of 1 mM unlabelled acetyl-CoA (Sigma). Trichloroacetic acid was prepared as a 10% w/v solution. Bovine serum albumin was prepared as a 25 mg/ml solution in water. DTT was prepared as a 50 mM solution in water. […] • 2. […] The suspension was transferred to a scintillation vial and radioactivity was measured in 2 ml of liquid scintillation cocktail. […]
Would you please tag the item YES when its % AcpS activity @ 500 uM is 0.2% or above, and NO when it is below?

Here are 2 molecules together with their reported answers.
## Task Reported % AcpS activity @ 500 uM at or above 0.2%? Cc1ccc(-c2cc(-c3nn[nH]n3)cc(-c3ccccc3-c3ccccc3)c2)c2ccccc12 [DNM0474]
## Result YES

## Task // next record Cc1ccc(-c2cc(-c3nn[nH]n3)cc(-c3cc(Cl)ccc3N(C)C)c2)c2ccccc12 [DNM0514]
## Result NO

Further cases:
## Task Assess whether reported % AcpS activity @ 500 uM for c1ccc(C2CC2)c(-c2cc(-c3nnn[nH]3)sc2-c2ccccc2C2CC2)c1 [DNM0570] sits at 0.2% or higher.
## Result NO

## Task Quick one: CC(C)c1ccccc1-c1cc(-c2nn[nH]n2)cc(-c2ccccc2C(C)C)c1 [DNM0532]
## Result YES

## Task Next molecule up: c1ccc(-c2cc(-c3nnn[nH]3)sc2-c2ccccc2)cc1 [DNM0535]
## Result YES

## Task Also Cc1ccc(-c2cc(-c3nn[nH]n3)cc(-c3ccc(C)cc3-c3ccccc3)c2)c(-c2ccccc2)c1 [DNM0516] , if possible.
## Result YES

## Task Another molecule to check: Brc1ccccc1-c1sc(-c2nnn[nH]2)cc1-c1ccccc1C1CCCC1 [DNM0571]
## Result NO

## Task And Cc1ccccc1-c1cc(-c2nn[nH]n2)cc(-c2ccccc2C)c1 [DNM0529] ?
## Result NO
